System: MRSA 15903
Experiment: microbe, parasite or virus in culture
Type: cell-based, Staphylococcus aureus
Settings: S. aureus CI-15903; +polymer (⅓ MIC) C12(5-ene)KKNC12KNH2
MEASURED_METRIC: MIC
# answer = value followed by unit

Guide cases for MIC, answers given:
| COMPOUND | READING |
| --- | --- |
| CN(C)[C@@H]1C(O)=C(C(N)=O)C(=O)[C@@]2(O)C(O)=C3C(=O)c4c(O)cccc4[C@@](C)(O)[C@H]3C[C@@H]12 | 0.1 µg/mL |
| CCN1CCN(C(=O)N[C@@H](C(=O)N[C@@H]2C(=O)N3[C@@H]2SC(C)(C)[C@@H]3C(=O)O)c2ccccc2)C(=O)C1=O | 4 µg/mL |
| Cc1onc(-c2ccccc2)c1C(=O)N[C@@H]1C(=O)N2[C@@H]1SC(C)(C)[C@@H]2C(=O)O | 4 µg/mL |
| CC1(C)S[C@@H]2[C@H](NC(=O)Cc3ccccc3)C(=O)N2[C@H]1C(=O)O | 4 µg/mL |
| O=C(O)c1cn(C2CC2)c2cc(N3CCNCC3)c(F)cc2c1=O | 4 µg/mL |
| CC[C@H]1OC(=O)[C@H](C)[C@@H](O[C@H]2C[C@@](C)(OC)[C@@H](O)[C@H](C)O2)[C@H](C)[C@@H](O[C@@H]2O[C@H](C)C[C@H](N(C)C)[C@H]2O)[C@](C)(O)C[C@@H](C)C(=O)[C@H](C)[C@@H](O)[C@]1(C)O | 0.1 µg/mL |

// moving on: another record for MIC
Quick note, MIC for CCCCCCCCCCCC(=O)N[C@@H](CCCCN)C(=O)NCCCCCCCC(=O)N[C@@H](CCCCN)C(=O)NCCCCCCCC(=O)N[C@@H](CCCCN)C(=O)NCCCCCCCC(=O)N[C@@H](CCCCN)C(=O)NCCCCCCCC(=O)N[C@@H](CCCCN)C(=O)NCCCCCCCC(=O)N[C@@H](CCCCN)C(=O)NCCCCCCCC(=O)N[C@@H](CCCCN)C(=O)NCCCCCCCC(=O)N[C@@H](CCCCN)C(N)=O [C12K(NC8K)7NH2] landed at 12.5 µg/mL

* * *

System: S. aureus 15819
Experiment: Antibiotic MIC by microdilution with or without sub-MIC polymer
Type: cell-based, Staphylococcus aureus
Conditions: S. aureus 15819; +⅓ MIC (2.1 μM) C12KKNC12KNH2
MEASURED_METRIC: Antibiotic MIC (µg/mL)
The figure you give is taken to be in µg/mL; do not add the unit.

Previously resolved entries follow.
| COMPOUND | VALUE_UNITS | Antibiotic MIC |
| --- | --- | --- |
| CC1(C)S[C@@H]2[C@H](NC(=O)Cc3ccccc3)C(=O)N2[C@H]1C(=O)O [Penicillin G, penicillin G] | µg/mL | 4 |
| Cc1onc(-c2ccccc2)c1C(=O)N[C@@H]1C(=O)N2[C@@H]1SC(C)(C)[C@@H]2C(=O)O [Oxacillin, oxacillin] | µg/mL | 8 |
| CN(C)[C@@H]1C(O)=C(C(N)=O)C(=O)[C@@]2(O)C(O)=C3C(=O)c4c(O)cccc4[C@@](C)(O)[C@H]3C[C@@H]12 [Tetracycline, tetracycline] | µg/mL | 0.5 |

Please examine the following record next.
Entry CC[C@H]1OC(=O)[C@H](C)[C@@H](O[C@H]2C[C@@](C)(OC)[C@@H](O)[C@H](C)O2)[C@H](C)[C@@H](O[C@@H]2O[C@H](C)C[C@H](N(C)C)[C@H]2O)[C@](C)(O)C[C@@H](C)C(=O)[C@H](C)[C@@H](O)[C@]1(C)O [Erythromycin, erythromycin] , S. aureus 15819 data, Antibiotic MIC value: 0.5

* * *

Test system: MRSA 15903
Assay: microbe, parasite or virus in culture
Format: cell-based, Staphylococcus aureus
Settings: MRSA 15903; +¼ polymer MIC (1.6 μM) NC12(KNC12K)2NH2
MEASURED_METRIC: log10 MIC (log10 of the value in µg/mL)
Remember, log10 of MIC, in µg/mL.

The measured log10 MIC associated with Cc1onc(-c2ccccc2)c1C(=O)N[C@@H]1C(=O)N2[C@@H]1SC(C)(C)[C@@H]2C(=O)O reads 2.41

Per the records, this compound ( CC1(C)S[C@@H]2[C@H](NC(=O)Cc3ccccc3)C(=O)N2[C@H]1C(=O)O ) has log10 MIC equal to 0.90

Please fill in: log10 MIC reported for CCN1CCN(C(=O)N[C@@H](C(=O)N[C@@H]2C(=O)N3[C@@H]2SC(C)(C)[C@@H]3C(=O)O)c2ccccc2)C(=O)C1=O = 1.81

For this compound ( CC[C@H]1OC(=O)[C@H](C)[C@@H](O[C@H]2C[C@@](C)(OC)[C@@H](O)[C@H](C)O2)[C@H](C)[C@@H](O[C@@H]2O[C@H](C)C[C@H](N(C)C)[C@H]2O)[C@](C)(O)C[C@@H](C)C(=O)[C@H](C)[C@@H](O)[C@]1(C)O ), measured log10 MIC is 0.00

Looking up CN(C)[C@@H]1C(O)=C(C(N)=O)C(=O)[C@@]2(O)C(O)=C3C(=O)c4c(O)cccc4[C@@](C)(O)[C@H]3C[C@@H]12 , I see its log10 MIC listed as -0.30

Documented log10 MIC of O=C(O)c1cn(C2CC2)c2cc(N3CCNCC3)c(F)cc2c1=O : 1.51

* * *

Test system: E. coli 16327
Test: microbe, parasite or virus in culture
Details: E. coli 16327; +¼ MIC (1.6 μM) C12K(KNC12K)2NH2
Protocol: MICs were determined by microdilution susceptibility testing in 96-well plates (by Nunc) using inocula of 10^5 bacteria per ml. Cell populations were evaluated by optical density measurements at 620 nm and were calibrated against a set of standards. […] Inhibition of proliferation was determined by optical density measurements at 620 nm after an incubation period of 24 hours at 37° C. […]
MEASURED_METRIC: Antibiotic MIC

Below are worked cases with known answers.
| MOL | Antibiotic MIC |
| --- | --- |
| O=C(O)c1cn(C2CC2)c2cc(N3CCNCC3)c(F)cc2c1=O | >512 µg/mL |
| CC1(C)S[C@@H]2[C@H](NC(=O)Cc3ccccc3)C(=O)N2[C@H]1C(=O)O | >512 µg/mL |

GET /value?item= CCN1CCN(C(=O)N[C@@H](C(=O)N[C@@H]2C(=O)N3[C@@H]2SC(C)(C)[C@@H]3C(=O)O)c2ccccc2)C(=O)C1=O &field=Antibiotic MIC returns 256 µg/mL

response.value for Cc1onc(-c2ccccc2)c1C(=O)N[C@@H]1C(=O)N2[C@@H]1SC(C)(C)[C@@H]2C(=O)O (field: Antibiotic MIC) = >512 µg/mL

* * *

Test system: E. coli 16327
Assay: microbe, parasite or virus in culture
Conditions: E. coli 16327; +½ MIC (3.12 μM) C12K(KNC12K)2NH2
Entries and their Antibiotic MIC values follow.

Below, each entry is followed by its recorded Antibiotic MIC result.
| MOLECULE | SYSTEM | MEASURED_METRIC | READING |
| --- | --- | --- | --- |
| CC1(C)S[C@@H]2[C@H](NC(=O)Cc3ccccc3)C(=O)N2[C@H]1C(=O)O [Penicillin G, penicillin G] | E. coli 16327 | Antibiotic MIC | >512 µg/mL |
| Cc1onc(-c2ccccc2)c1C(=O)N[C@@H]1C(=O)N2[C@@H]1SC(C)(C)[C@@H]2C(=O)O [Oxacillin, oxacillin] | E. coli 16327 | Antibiotic MIC | 512 µg/mL |
| CCN1CCN(C(=O)N[C@@H](C(=O)N[C@@H]2C(=O)N3[C@@H]2SC(C)(C)[C@@H]3C(=O)O)c2ccccc2)C(=O)C1=O [Piperacillin, piperacillin] | E. coli 16327 | Antibiotic MIC | 64 µg/mL |

Would you kindly look at the next entry?
Result for O=C(O)c1cn(C2CC2)c2cc(N3CCNCC3)c(F)cc2c1=O [Ciprofloxacin, ciprofloxacin] , tested on E. coli 16327, Antibiotic MIC: 128 µg/mL

* * *

Item-by-item account of MIC
Test system: MRSA 15903
Test: microbe, parasite or virus in culture
Format: cell-based, Staphylococcus aureus
Details: Staphylococcus aureus, MRSA, 24 h, MRSA 15903; antibiotic alone (Table 22); read-out: MIC, Alone
Give just the number in µg/mL; leave the unit off.

Example cases with answers are listed next.
| MOLECULE | MIC [µg/mL] |
| --- | --- |
| CC[C@H]1OC(=O)[C@H](C)[C@@H](O[C@H]2C[C@@](C)(OC)[C@@H](O)[C@H](C)O2)[C@H](C)[C@@H](O[C@@H]2O[C@H](C)C[C@H](N(C)C)[C@H]2O)[C@](C)(O)C[C@@H](C)C(=O)[C@H](C)[C@@H](O)[C@]1(C)O [Erythromycin, erythromycin] | 1 |
| CCN1CCN(C(=O)N[C@@H](C(=O)N[C@@H]2C(=O)N3C(C(=O)O)=C(CSc4nnnn4C)CS[C@H]23)c2ccc(O)cc2)C(=O)C1=O [cefoperazone] | 16 |
| CN(C)[C@@H]1C(O)=C(C(N)=O)C(=O)[C@@]2(O)C(O)=C3C(=O)c4c(O)cccc4[C@@](C)(O)[C@H]3C[C@@H]12 [Tetracycline, tetracycline] | 1 |
| Cc1nnc(SCC2=C(C(=O)O)N3C(=O)[C@@H](NC(=O)Cn4cnnn4)[C@H]3SC2)s1 [cefazolin] | 16 |
| CO/N=C(\C(=O)N[C@@H]1C(=O)N2C(C(=O)O)=C(COC(C)=O)CS[C@H]12)c1csc(N)n1 [cefotaxime] | 32 |

Here's the next entry for you.
// O=C(O)c1cn(C2CC2)c2cc(N3CCNCC3)c(F)cc2c1=O [Ciprofloxacin, ciprofloxacin] : MIC value = 256
